All values here come from patent US9133440B2.

Target: Reg Receptor (Homo sapiens, UniProt O43909)
Sequence (O43909 1-919): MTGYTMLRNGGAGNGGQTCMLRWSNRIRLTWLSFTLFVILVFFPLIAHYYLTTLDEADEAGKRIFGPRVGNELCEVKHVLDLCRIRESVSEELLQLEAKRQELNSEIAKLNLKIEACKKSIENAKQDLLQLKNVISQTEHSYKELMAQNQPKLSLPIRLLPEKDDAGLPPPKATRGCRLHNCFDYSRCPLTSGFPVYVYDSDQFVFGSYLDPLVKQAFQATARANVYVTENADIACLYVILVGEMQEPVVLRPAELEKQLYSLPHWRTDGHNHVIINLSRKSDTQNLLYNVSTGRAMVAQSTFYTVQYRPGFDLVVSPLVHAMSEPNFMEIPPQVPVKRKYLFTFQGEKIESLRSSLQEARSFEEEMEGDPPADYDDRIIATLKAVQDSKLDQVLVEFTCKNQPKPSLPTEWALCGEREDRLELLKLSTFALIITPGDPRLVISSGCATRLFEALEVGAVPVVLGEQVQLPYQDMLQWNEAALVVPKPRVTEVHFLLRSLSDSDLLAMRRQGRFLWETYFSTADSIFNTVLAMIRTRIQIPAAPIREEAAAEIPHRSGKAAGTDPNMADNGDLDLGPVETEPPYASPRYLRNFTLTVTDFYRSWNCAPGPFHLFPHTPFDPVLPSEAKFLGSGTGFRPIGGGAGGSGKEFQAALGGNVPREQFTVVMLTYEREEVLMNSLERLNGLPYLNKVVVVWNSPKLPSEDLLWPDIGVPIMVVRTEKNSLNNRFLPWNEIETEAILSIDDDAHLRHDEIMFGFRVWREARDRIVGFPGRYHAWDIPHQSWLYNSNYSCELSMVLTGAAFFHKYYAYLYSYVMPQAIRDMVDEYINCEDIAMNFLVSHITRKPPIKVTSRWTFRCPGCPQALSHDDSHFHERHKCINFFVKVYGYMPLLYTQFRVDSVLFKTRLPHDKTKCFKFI
Assay: Direct binding of Perle peptides to purified Reg Receptor coated on 96 well plate (strep-HRP, absorbance at 405 nm)
Design: FLAG; made in house; host or cells: 293T cells (transient transfection, harvested after 72 hours)
Conditions: purified Reg Receptor coated on plate; peptides bound 1 hour at room temperature; absorbance at 405 nm; FIG. 9
assay-readout: direct binding to the Reg Receptor

substance	recorded-measurement
WIGLHDP (listed as Homo sapiens) [SEQ. ID NO. 7, 7-amino acid Perle peptide within human Reg1a, Reg1b, Reg3a and Reg4]	demonstrated binding
NVWIGLHDP (listed as Homo sapiens) [SEQ. ID NO. 1, 9-amino acid Perle peptide within human Reg1a and Reg1b]	demonstrated binding
